// reported −TΔS° for each item listed
- tested_system: Spindlin1 (SPIN1_49-262) (Homo sapiens, UniProt Q9Y657)
- Construct: SPIN1_49-262 was expressed and purified as described previously; His tag; made in house; host or cells: E. coli BL21
- Sequence (Q9Y657 49-262): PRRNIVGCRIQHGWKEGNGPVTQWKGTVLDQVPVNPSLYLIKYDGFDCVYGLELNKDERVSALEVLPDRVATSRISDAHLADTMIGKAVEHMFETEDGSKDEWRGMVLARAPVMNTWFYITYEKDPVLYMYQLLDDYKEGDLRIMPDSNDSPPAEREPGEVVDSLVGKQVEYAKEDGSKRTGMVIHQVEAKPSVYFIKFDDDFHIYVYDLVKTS
- assay: Isothermal titration calorimetry of 15-mer H3K4me3X8 peptides binding to Spindlin1
- condition_parameters: ITC, 25.0 °C, 20 mM Tris, 100 mM NaCl pH 8.0; mean ± SD of 3 repeated ITC experiments; SD
Starred links: 1 amine or outer side, 2 acyl side, 3 side chain; linkers in the order of their positions; H or OH if unused. Non-standard residues stand in square brackets, D forms with d. Residues, ends and D or L forms follow the SMILES beside them. Groups on a side chain read outwards from the residue. X3 = N=C(NCCC[C@H](N[*:1])C(=O)[*:2])N1CCCCC1; Lys(Me3) = C[N+](C)(C)CCCC[C@H](N)C(=O)O; Orn = NCCC[C@H](N)C(=O)O; CO = O=C([*:1])[*:2]

>>> result("C[C@H](N)C(=O)N[C@@H](CCCNC(=N)N)C(=O)N[C@H](C(=O)N[C@@H](CCCC[N+](C)(C)C)C(=O)N[C@@H](CCC(N)=O)C(=O)N[C@H](C(=O)N[C@@H](C)C(=O)N[C@@H](CCCNC(=N)N1CCCCC1)C(=O)N[C@@H](CCCCN)C(=O)N[C@@H](CO)C(=O)N[C@H](C(=O)NCC(=O)NCC(=O)N[C@@H](CCCCN)C(=O)N[C@@H](C)C(N)=O)[C@@H](C)O)[C@@H](C)O)[C@@H](C)O [H3K4me3R8pip] (H-ART[Lys(Me3)]QTA[X3]KSTGGKA-NH2)")
"11.2 ± 0.1 kcal/mol"

# input for lookup
Exercise: Tell me the measured −TΔS° of C[C@H](N)C(=O)N[C@@H](CCCNC(=N)N)C(=O)N[C@H](C(=O)N[C@@H](CCCC[N+](C)(C)C)C(=O)N[C@@H](CCC(N)=O)C(=O)N[C@H](C(=O)N[C@@H](C)C(=O)N[C@@H](CCCNC(=O)N(C)C)C(=O)N[C@@H](CCCCN)C(=O)N[C@@H](CO)C(=O)N[C@H](C(=O)NCC(=O)NCC(=O)N[C@@H](CCCCN)C(=O)N[C@@H](C)C(N)=O)[C@@H](C)O)[C@@H](C)O)[C@@H](C)O [H3K4me3Cit8me2] (H-ART[Lys(Me3)]QTA[Orn]([CO-NMe2])KSTGGKA-NH2) , please.
Solution: 5.9 ± 0.2 kcal/mol
